Biological target: G protein-coupled receptor 88 (Homo sapiens, UniProt Q9GZN0)
Sequence (Q9GZN0 whole entry): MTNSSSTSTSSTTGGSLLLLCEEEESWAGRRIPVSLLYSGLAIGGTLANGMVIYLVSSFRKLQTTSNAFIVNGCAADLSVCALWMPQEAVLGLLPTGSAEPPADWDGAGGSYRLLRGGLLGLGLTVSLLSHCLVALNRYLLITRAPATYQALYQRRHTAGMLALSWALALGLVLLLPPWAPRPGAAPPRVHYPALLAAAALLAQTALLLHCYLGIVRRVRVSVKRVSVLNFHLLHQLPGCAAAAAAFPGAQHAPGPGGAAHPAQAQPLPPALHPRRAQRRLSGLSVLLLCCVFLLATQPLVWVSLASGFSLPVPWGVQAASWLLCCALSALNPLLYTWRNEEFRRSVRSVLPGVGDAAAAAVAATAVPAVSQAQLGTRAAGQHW
Experiment: Agonist activity at GPR88 (unknown origin) transfected into cells assessed as cAMP accumulation by HTRF assay
Could you mark each record rule met if its EC50 falls strictly under 300 nM, and rule not met if it equals or exceeds it?

CC[C@@H](C)[C@H](N)CN(C(=O)[C@@H]1C[C@H]1c1ccccc1)c1ccc(-c2ccccc2)cc1 rule met
CCOc1ccc(-c2ccc(N(C[C@@H](N)[C@@H](C)CC)C(=O)[C@@H]3C[C@H]3c3ccccc3)cc2)cc1 rule met
CC[C@H](C)[C@H](N)CN(C(=O)[C@@H]1C[C@H]1c1ccccn1)c1ccc(-c2ccc(COC)cc2)cc1 rule met
CC[C@H](C)[C@H](N)CN(C(=O)[C@@H]1C[C@H]1c1ccccc1)c1ccc(-c2ccc(CN)cc2)cc1 rule not met
CC[C@H](C)[C@H](N)CN(C(=O)[C@@H]1C[C@H]1c1cccc(OC)c1)c1ccc(-c2ccccc2)cc1 rule not met
CC(C)C[C@H](N)CN(C(=O)[C@@H]1C[C@H]1c1ccccc1)c1ccc(-c2cccc(C#N)c2)cc1 rule not met

EC50 under 300 nM? Item: "CC[C@H](C)[C@H](N)CN(C(=O)[C@@H]1C[C@H]1c1ccccc1)c1ccc(-c2ccc(C(F)(F)F)cc2)cc1"
rule not met

EC50 under 300 nM? Item: "CC[C@H](C)[C@H](N)CN(C(=O)[C@@H]1C[C@H]1c1cccc(Cl)c1)c1ccc(-c2ccccc2)cc1"
rule not met
